These measurements were taken from paper PMC6421704.

# System: c-Met and TrkB coexpressing cell lines (c-Met^hiTrkB^hi)
# assay_info: Cell growth of c-Met and TrkB coexpressing cell lines
# Type: cell-based
# measurement_setup: Homo sapiens, read-out: IC50 value, range over cell lines
outcome_measure: IC50

// field: IC50; key: "Cc1ccccc1NS(=O)(=O)c1ccc2c(c1)/C(=C/c1nc3ccccc3[nH]1)C(=O)N2" ; value = 1110 to 1870 nM

====

# experimental_system: RET (Homo sapiens)
# Sequence (P07949 29-1114): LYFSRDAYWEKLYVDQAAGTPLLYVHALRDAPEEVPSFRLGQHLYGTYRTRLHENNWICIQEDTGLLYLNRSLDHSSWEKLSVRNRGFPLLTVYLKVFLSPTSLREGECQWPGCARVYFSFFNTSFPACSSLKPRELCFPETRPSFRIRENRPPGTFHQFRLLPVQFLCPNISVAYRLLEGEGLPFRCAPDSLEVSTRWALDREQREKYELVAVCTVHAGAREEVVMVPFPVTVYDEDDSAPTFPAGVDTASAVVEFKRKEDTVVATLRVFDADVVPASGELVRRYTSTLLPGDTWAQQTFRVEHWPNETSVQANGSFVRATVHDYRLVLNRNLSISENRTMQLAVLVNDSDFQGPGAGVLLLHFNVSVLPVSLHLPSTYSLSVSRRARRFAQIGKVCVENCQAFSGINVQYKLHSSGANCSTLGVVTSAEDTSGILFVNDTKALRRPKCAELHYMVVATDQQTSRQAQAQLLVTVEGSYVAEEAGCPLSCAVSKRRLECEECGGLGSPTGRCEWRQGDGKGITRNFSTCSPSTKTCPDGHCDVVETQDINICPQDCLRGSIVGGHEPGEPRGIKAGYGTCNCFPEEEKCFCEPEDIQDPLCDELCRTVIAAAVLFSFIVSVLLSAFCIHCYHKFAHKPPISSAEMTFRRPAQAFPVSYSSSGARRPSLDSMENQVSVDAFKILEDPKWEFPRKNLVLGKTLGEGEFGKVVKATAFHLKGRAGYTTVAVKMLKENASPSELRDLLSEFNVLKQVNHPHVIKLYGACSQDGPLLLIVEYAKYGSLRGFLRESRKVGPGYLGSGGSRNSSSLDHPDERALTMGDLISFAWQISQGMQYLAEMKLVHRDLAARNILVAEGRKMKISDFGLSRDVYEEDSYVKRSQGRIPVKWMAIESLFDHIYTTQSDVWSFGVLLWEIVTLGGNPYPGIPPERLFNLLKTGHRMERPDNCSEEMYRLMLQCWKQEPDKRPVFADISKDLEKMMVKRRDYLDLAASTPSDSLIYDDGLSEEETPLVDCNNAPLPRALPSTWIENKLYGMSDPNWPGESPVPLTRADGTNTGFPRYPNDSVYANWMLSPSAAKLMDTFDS
outcome_measure: IC50

Item: "Cc1ccccc1NS(=O)(=O)c1ccc2c(c1)/C(=C/c1nc3ccccc3[nH]1)C(=O)N2" | IC50: > 10 µM
